test system: SK-MEL-28 melanoma; test: NCI-60 one-dose screen, 48 h (100 = growth as untreated, 0 = no growth, -100 = all killed); conditions: 1 µM
This is part of a sample that, as a whole, favours compounds with a hit. Of some 83,000 tested, about 20% had one in any assay.
List of growth values.

>  <mol>
CC/C(=C(/c1ccc(O)cc1)c1ccc(OCCN(C)C(=O)COCCOCCNC(=O)Cc2ccc3c(c2)CN([C@@H]2CCC(=O)NC2=O)C3=O)cc1)c1ccccc1

>  <growth / %>
98.3

$$$$
>  <mol>
CC/C(=C(\c1ccc(O)cc1)c1ccc(OCCN(C)C(=O)COCCNC(=O)Cc2ccc3c(c2)CN([C@@H]2CCC(=O)NC2=O)C3=O)cc1)c1ccccc1

>  <growth / %>
90.4

$$$$
>  <mol>
CC/C(=C(\c1ccc(O)cc1)c1ccc(OCCN(C)C(=O)CCOCCNC(=O)c2ccc3c(c2)CN([C@@H]2CCC(=O)NC2=O)C3=O)cc1)c1ccccc1

>  <growth / %>
102

$$$$
>  <mol>
CC/C(=C(/c1ccc(O)cc1)c1ccc(OCCN(C)C(=O)CCOCCNC(=O)Cc2ccc3c(c2)CN([C@@H]2CCC(=O)NC2=O)C3=O)cc1)c1ccccc1

>  <growth / %>
101

$$$$

###

List of growth values.
test system: K-562 leukemia; assay: NCI-60 one-dose screen, 48 h (100 = growth as untreated, 0 = no growth, -100 = all killed); conditions: 10 µM unless noted
The panel holds about 83,000 compounds, 20% with a hit somewhere; the sample as a whole holds those more often. Activity calls are given as the source filed them. How the source made its calls: active means growth percent below 10; inactive means the rest.
outcomeMeasure: growth

>  <molecule>
CN(C(=O)CN1C(=O)/C(=C/c2ccco2)SC1=S)C1CCS(=O)(=O)C1 (stereo not given)

>  <result>
85.1% (inactive)

$$$$
>  <molecule>
O=C(CSc1nnc(-c2ccc(-c3nc4ccc(Cl)cc4[nH]3)cc2)o1)Nc1ccc(Br)cc1

>  <result>
15% (inactive)

$$$$
>  <molecule>
CCCCCCCCCc1ccc(C(=O)Nc2cc(C)ccc2C(=O)OC)cc1

>  <result>
98.8% (inactive)

$$$$
>  <molecule>
C/C(=N/O)c1ccc(NC(=O)CSc2nnc(-c3ccc(-c4nc5ccc(Cl)cc5[nH]4)cc3)o2)cc1

>  <result>
14.9% (inactive)

$$$$
>  <molecule>
Cc1nn(-c2ccccc2)c2nc(C)n(CC(=O)N/N=C/c3ccccc3O)c(=O)c12

>  <result>
18.4% (inactive)

$$$$

###

system: CCRF-CEM leukemia; test: NCI-60 one-dose screen, 48 h; details: 10 µM unless noted
About 83,000 compounds went through this panel and 20% of them were active in at least one assay; those are over-represented in the sample as a whole. Calls of active or inactive are those of the source. Rule for the calls: active = growth percent below 10; inactive = the rest.
Outcomes: Yes (active), No (inactive)

>  <compound>
Cc1ccc(S(=O)(=O)N(CCn2ccnc2[N+](=O)[O-])CCn2ccnc2[N+](=O)[O-])cc1

>  <cat>
No

$$$$
>  <compound>
CC1=NN(C2=NC(=O)C(CC(=O)Nc3ccccc3C(F)(F)F)S2)C(c2ccc(N(C)C)cc2)C1 (centres undefined)

>  <cat>
No

$$$$
>  <compound>
CC(C)(C)c1cc(-c2cc(-c3ccccc3)[nH]c(=O)c2C#N)cc(C(C)(C)C)c1

>  <cat>
No

$$$$
>  <compound>
O=C(c1ccc(Cl)cc1)C1[C@H](c2ccccc2Cl)[C@@H](c2ccccc2)NC12C(=O)Nc1ccc(Cl)cc12 (some centres undefined)

>  <cat>
Yes

$$$$
>  <compound>
O=C(Nc1ccc(F)cc1)Nc1nc2ccc([N+](=O)[O-])cc2s1

>  <cat>
No

$$$$
>  <compound>
Cc1nn(-c2ccccc2)c2nc(C)n(CC(=O)N/N=C/c3ccccc3O)c(=O)c12

>  <cat>
No

$$$$
>  <compound>
COc1ccc(Nc2nnc(-c3c[nH]c4ccccc34)o2)cc1

>  <cat>
Yes

$$$$
>  <compound>
CCc1ccccc1NC(=O)N/C(N)=N/c1nc2ccccc2s1

>  <cat>
Yes

$$$$
>  <compound>
COc1ccc(N=Nc2c(N)nn3c(-c4ccc([N+](=O)[O-])cc4)ccnc23)cc1

>  <cat>
No

$$$$

###

List of growth values.
test system: RXF 393 renal; assay: NCI-60 one-dose screen, 48 h (100 = growth as untreated, 0 = no growth, -100 = all killed); conditions: 10 µM unless noted
About 83,000 compounds went through this panel and 20% of them were active in at least one assay; those are over-represented in the sample as a whole.

>  <compound>
Cc1nn(-c2ccccc2)c2nc(C)n(C(=O)N/N=C/c3cccc([N+](=O)[O-])c3)c(=O)c12

>  <growth (%)>
115

$$$$
>  <compound>
COc1cc(CNC(=O)C[C@H](C)CCC=C(C)C)ccc1OCc1cn(-c2ccc(Cl)c(Cl)c2)nn1

>  <growth (%)>
74.8

$$$$
>  <compound>
COc1nc(N)ncc1-c1ccc2ncnc(N3CCc4cc(F)c(Cl)cc43)c2c1

>  <growth (%)>
-46.2

$$$$
>  <compound>
Cc1ccc(C2CC(c3ccc(S(=O)(=O)NCCNc4nc(N(C)C)nc(N5CCOCC5)n4)cc3)=Nc3c(N)nc(N)nc3N2)cc1 (centres undefined)

>  <growth (%)>
10.6

$$$$
>  <compound>
COc1cc(CNC(=O)C[C@H](C)CCC=C(C)C)ccc1OCc1cn(-c2ccccc2Cl)nn1

>  <growth (%)>
72.6

$$$$
>  <compound>
O=C(NNC(=S)NCCc1ccccc1)c1ccc(OCc2nc3ccc(Cl)cc3[nH]2)cc1

>  <growth (%)>
93

$$$$
>  <compound>
CN1C(=O)/C(=C/c2ccco2)S/C1=N/c1nccs1

>  <growth (%)>
111

$$$$
>  <compound>
FC(F)(F)c1cc2c(Cl)ncnc2n1CCN1CCCCC1

>  <growth (%)>
80.8

$$$$
>  <compound>
COc1cc(/C=N/NC(=O)c2ccc(OCc3nc4ccc(C)cc4[nH]3)cc2)cc(OC)c1OC

>  <growth (%)>
39.6

$$$$
>  <compound>
OC(c1ccccc1)(c1ccccc1)C1CCN(c2ccc3nnc(Cl)n3n2)CC1

>  <growth (%)>
32.8

$$$$
>  <compound>
COc1cc(/C=N/NC(=O)c2ccc(OCc3nc4ccc(Cl)cc4[nH]3)cc2)cc(OC)c1OC

>  <growth (%)>
-26.2

$$$$
>  <compound>
COc1ccc2c(c1)C(Sc1ccc(F)cc1)c1c(nc(N)c(C#N)c1N)O2 (centres undefined)

>  <growth (%)>
69.2

$$$$
>  <compound>
O=C(c1ccc(O)cc1)C1[C@H](c2ccc(Cl)cc2)[C@@H](c2ccccc2)NC12C(=O)Nc1ccc(Br)cc12 (some centres undefined)

>  <growth (%)>
-85.9

$$$$
>  <compound>
CC(=O)C[n+]1cccc2c3ccccc3ccc21

>  <growth (%)>
46.3

$$$$
>  <compound>
CC(C)(C)C(=O)c1c2c(c3ccc4c5ccccc5ccc4n13)C(=O)c1ccccc1C2=O

>  <growth (%)>
105

$$$$
>  <compound>
CN(C)c1nc(NCCNS(=O)(=O)c2ccc(C3=Nc4c(N)nc(N)nc4NC(c4ccc(C(F)(F)F)cc4)C3)cc2)nc(N2CCOCC2)n1 (centres undefined)

>  <growth (%)>
16.6

$$$$
>  <compound>
CCOC(=O)/C(F)=C/C1CC1CCc1ccc(OCC)cc1 (centres undefined)

>  <growth (%)>
96.2

$$$$
>  <compound>
Cc1nn(-c2ccccc2)c2nc(C)n(CC(=O)N/N=C/c3cccc([N+](=O)[O-])c3)c(=O)c12

>  <growth (%)>
84.2

$$$$
>  <compound>
COc1ccc(N=Nc2c(N)nn3c(-c4cc5ccccc5oc4=O)ccnc23)cc1

>  <growth (%)>
10.1

$$$$

###

tested on: UACC-62 melanoma; experiment: NCI-60 one-dose screen, 48 h (100 = growth as untreated, 0 = no growth, -100 = all killed); conditions: 10 µM unless noted
The panel holds about 83,000 compounds, 20% with a hit somewhere; the sample as a whole holds those more often.

>  <compound>
C=CC(=O)N1CCN(c2ccc3nc4c(nc3c2C(F)(F)F)C(=O)c2ncccc2C4=O)CC1

>  <growth / %>
-60

$$$$
>  <compound>
Cc1[nH]nc2ccc3nc(-c4cnn(CCO)c4)c4c(c3c12)CCCC4

>  <growth / %>
34.8

$$$$
>  <compound>
O=C(CSc1nnc(-c2ccc(-c3nc4ccc(Cl)cc4[nH]3)cc2)o1)Nc1ccccc1

>  <growth / %>
7.34

$$$$
>  <compound>
CN1CCN(C(=O)Oc2cc3c(c4ccccc24)[C@H](CCl)CN3C(=O)c2cc3cc(OCCCN4CCC4)ccc3[nH]2)[C@@H]2CSSC[C@H]21

>  <growth / %>
-81.9

$$$$
>  <compound>
CCOc1ccccc1[C@H]1C(C(=O)c2ccc(Cl)cc2)C2(N[C@@H]1c1ccccc1)C(=O)Nc1ccccc12 (stereo partly drawn)

>  <growth / %>
-4.32

$$$$
>  <compound>
CN(C)CCOc1ccc(C(=O)C2[C@H](c3ccc(Cl)cc3)[C@@H](c3ccccc3)NC23C(=O)Nc2ccc(Cl)cc23)cc1 (stereo partly drawn)

>  <growth / %>
-78.3

$$$$
>  <compound>
COc1ccc(NC(=O)NN2C(=O)c3ccccc3N(C)C2c2ccc(OC)cc2)cc1 (stereo not drawn)

>  <growth / %>
78.1

$$$$
>  <compound>
CC1CCc2c(sc3nc(SCC(=O)c4cccc([N+](=O)[O-])c4)n(-c4ccccc4)c(=O)c23)C1 (stereo not drawn)

>  <growth / %>
91.9

$$$$
>  <compound>
CCc1ccc(SC2c3cc(OC)ccc3Oc3nc(N)c(C#N)c(N)c32)cc1 (stereo not drawn)

>  <growth / %>
-80.7

$$$$
>  <compound>
N#CC1=C(c2ccco2)Nc2c(c(-c3ccccc3)nn2-c2ccccc2)C12C(=O)Nc1ccc(Br)cc12 (stereo not drawn)

>  <growth / %>
51.5

$$$$
>  <compound>
Nc1cc(-c2c[nH]c3ccc(Cl)cc23)nc2cc(-c3c[nH]c4ccccc34)nn12

>  <growth / %>
-82.7

$$$$
>  <compound>
COc1ccc(-c2cc(C(=O)N=Nc3c(O)[nH]c4ccc(Cl)cc34)c3ccccc3n2)cc1OC

>  <growth / %>
89.8

$$$$
>  <compound>
Cn1cc(-c2cc(N)n3nc(-c4c[nH]c5ccccc45)cc3n2)c2cc(Cl)ccc21

>  <growth / %>
-76.9

$$$$
>  <compound>
COc1ccc(C(=O)/C=C/c2ccc3c(c2)OCCO3)cc1S(N)(=O)=O

>  <growth / %>
87.9

$$$$
>  <compound>
Cc1nc(Nc2ccccn2)sc1C1=NNC(c2ccccc2F)C1 (stereo not drawn)

>  <growth / %>
29.4

$$$$
>  <compound>
COc1ccc(N=Nc2c(N)nn3c(-c4cc5ccccc5oc4=O)ccnc23)cc1

>  <growth / %>
47.7

$$$$
>  <compound>
COc1ccc2[nH]cc(-c3cc4nc(-c5cn(C)c6ncccc56)cc(N)n4n3)c2c1

>  <growth / %>
85.9

$$$$
>  <compound>
CN1C(=O)/C(=C\C(=O)c2cc3ccccc3oc2=O)c2ccccc21

>  <growth / %>
42.6

$$$$
